Tested on: L1210
PROTOCOL: In vitro inhibitory dose that reduces L1210 cell line by 50% when added for a period of 70h
Type: functional
CONDITION_LABEL: Mus musculus, L1210, 70 h; read-out: ID50 (the source's name)

SMILES_STR: c1ccc2c(NCCCCCCNc3c4ccccc4nc4ccccc34)c3ccccc3nc2c1
TARGET_ENTITY: L1210
IC50 (nM): 110

SMILES_STR: c1ccc2c(NCCCNCCCNc3c4ccccc4nc4ccccc34)c3ccccc3nc2c1
TARGET_ENTITY: L1210
IC50 (nM): 480

SMILES_STR: c1ccc2c(NCCCCNCCCNc3c4ccccc4nc4ccccc34)c3ccccc3nc2c1
TARGET_ENTITY: L1210
IC50 (nM): 29

SMILES_STR: c1ccc2c(NCCCNCCNCCCNc3c4ccccc4nc4ccccc34)c3ccccc3nc2c1
TARGET_ENTITY: L1210
IC50 (nM): 560
